target.of.assay: 92 kDa gelatinase (MMP9) (Homo sapiens)
Sequence (P14780 107-707 limits assumed): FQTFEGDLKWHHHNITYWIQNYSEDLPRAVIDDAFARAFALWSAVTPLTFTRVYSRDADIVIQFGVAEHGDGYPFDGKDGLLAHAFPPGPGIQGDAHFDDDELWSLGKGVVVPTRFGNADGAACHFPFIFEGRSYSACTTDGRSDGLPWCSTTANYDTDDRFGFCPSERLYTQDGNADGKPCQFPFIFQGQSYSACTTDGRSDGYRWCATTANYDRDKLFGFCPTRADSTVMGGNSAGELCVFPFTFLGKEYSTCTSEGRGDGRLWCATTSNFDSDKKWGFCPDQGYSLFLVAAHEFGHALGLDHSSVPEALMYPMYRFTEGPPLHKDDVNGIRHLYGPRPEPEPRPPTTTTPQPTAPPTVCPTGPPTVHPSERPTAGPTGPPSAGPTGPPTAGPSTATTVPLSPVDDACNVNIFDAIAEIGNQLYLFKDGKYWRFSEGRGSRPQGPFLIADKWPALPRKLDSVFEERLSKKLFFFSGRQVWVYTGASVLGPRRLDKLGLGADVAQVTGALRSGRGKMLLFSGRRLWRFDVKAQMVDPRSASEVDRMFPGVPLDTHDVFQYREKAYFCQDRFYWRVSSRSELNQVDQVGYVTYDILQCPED
method: MMP9 enzyme inhibition assay (fluorogenic peptide substrate McaPLGLDpaAR)
experimental.parameters: recombinant human 92 kDa gelatinase, 37° C., 2 hours
value.kind: IC50

>>> df
                                   compound   recorded_result
0  CO[C@H](C(=O)NO)[C@@H](CC(C)C)C(=O)N[C@@H](Cc1ccccc1)c1nc(C)no1 [Example 25]    100 to 1000 nM
1  CC(C)C[C@@H](C(=O)N[C@H](c1noc(CC(C)(C)C)n1)C(C)(C)C)[C@H](O)C(=O)NO [Example 14]  1000 to 10000 nM
2  CC(C)Cc1nc([C@@H](NC(=O)[C@H](CC(C)C)[C@H](O)C(=O)NO)C(C)(C)C)no1 [Example 11]  1000 to 10000 nM
3  C=CC[C@H](C(=O)NO)[C@@H](CC(C)C)C(=O)N[C@@H](Cc1ccccc1)c1nc(-c2ccccc2)no1 [Example 20]          < 100 nM

Measured values drawn from patent US20100035943A1 for this set.
